Each entry below carries its recorded pIC50.
subject-of-test: UniProtKB Q12809
Sequence (Q12809 whole entry): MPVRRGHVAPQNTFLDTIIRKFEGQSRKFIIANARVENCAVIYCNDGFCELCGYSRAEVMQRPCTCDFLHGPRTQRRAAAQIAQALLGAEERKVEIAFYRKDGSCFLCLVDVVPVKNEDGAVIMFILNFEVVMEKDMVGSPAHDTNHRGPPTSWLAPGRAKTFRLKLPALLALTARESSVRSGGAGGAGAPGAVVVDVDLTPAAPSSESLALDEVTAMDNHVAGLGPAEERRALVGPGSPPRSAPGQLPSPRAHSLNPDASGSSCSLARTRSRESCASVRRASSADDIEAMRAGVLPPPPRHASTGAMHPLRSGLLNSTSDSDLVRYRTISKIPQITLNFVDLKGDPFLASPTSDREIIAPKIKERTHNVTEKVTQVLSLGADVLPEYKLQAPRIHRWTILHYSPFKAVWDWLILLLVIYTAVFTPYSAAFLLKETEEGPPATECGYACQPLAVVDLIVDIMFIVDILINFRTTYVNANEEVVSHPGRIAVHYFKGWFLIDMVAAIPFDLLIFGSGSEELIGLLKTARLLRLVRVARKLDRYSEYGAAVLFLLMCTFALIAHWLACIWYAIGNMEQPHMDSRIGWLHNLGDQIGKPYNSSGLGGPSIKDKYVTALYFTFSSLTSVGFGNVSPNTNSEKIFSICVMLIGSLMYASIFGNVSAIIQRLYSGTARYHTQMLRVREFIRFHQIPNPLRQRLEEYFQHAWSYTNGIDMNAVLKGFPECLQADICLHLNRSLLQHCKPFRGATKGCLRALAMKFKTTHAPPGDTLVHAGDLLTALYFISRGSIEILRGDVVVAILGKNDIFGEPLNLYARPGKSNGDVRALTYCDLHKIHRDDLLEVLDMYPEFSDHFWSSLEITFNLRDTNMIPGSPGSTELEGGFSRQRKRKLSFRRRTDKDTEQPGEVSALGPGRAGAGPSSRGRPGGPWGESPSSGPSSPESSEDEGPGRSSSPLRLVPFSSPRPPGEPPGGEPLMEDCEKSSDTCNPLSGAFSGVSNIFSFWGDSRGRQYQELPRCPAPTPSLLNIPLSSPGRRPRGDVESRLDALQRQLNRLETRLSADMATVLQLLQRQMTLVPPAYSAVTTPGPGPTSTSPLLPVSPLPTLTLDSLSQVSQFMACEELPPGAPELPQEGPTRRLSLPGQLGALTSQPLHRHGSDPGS
pIC50: −log10 of the molar value.

| compound-string | pIC50 |
| --- | --- |
| CCn1nc(C)cc1C(=O)/N=c1\[nH]c2cc(-c3ncn[nH]3)cc(OC)c2n1C/C=C/Cn1/c(=N/C(=O)c2cc(C)nn2CC)[nH]c2cc(C(N)=O)cc(OCCCN3CCOCC3)c21.Cl.Cl.Cl | < 4.40 |
| CCn1nc(C)cc1C(=O)Nc1nc2cc(C(N)=O)cc(OC)c2n1C/C=C/Cn1c(NC(=O)c2cc(C)nn2CC)nc2cc(C(N)=O)cc(OCCCN3CCOCC3)c21 | < 4.40 |

---

Each entry below carries its recorded EC50.
subject-of-test: Stimulator of interferon genes protein (Homo sapiens, UniProt Q86WV6)
Sequence (Q86WV6 whole entry): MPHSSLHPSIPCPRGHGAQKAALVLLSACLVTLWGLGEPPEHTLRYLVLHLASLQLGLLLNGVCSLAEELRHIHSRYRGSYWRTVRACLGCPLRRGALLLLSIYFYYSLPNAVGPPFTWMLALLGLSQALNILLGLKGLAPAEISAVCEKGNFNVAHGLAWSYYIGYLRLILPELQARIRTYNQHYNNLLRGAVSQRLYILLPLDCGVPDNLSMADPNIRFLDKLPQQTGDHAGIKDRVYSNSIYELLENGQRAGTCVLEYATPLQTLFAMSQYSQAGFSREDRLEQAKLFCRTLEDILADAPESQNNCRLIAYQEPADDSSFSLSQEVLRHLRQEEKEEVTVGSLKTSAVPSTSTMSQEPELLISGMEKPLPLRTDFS
protocol-text: Activation of human STING expressed in THP1-Dual cells incubated for 24 hrs by secreted luciferase reporter gene assay

| compound-string | EC50 |
| --- | --- |
| CCn1nc(C)cc1C(=O)/N=c1\[nH]c2cc(-c3ncc[nH]3)cc(OC)c2n1C/C=C/Cn1/c(=N/C(=O)c2cc(C)nn2CC)[nH]c2cc(C(N)=O)cc(OCCCN3CCOCC3)c21 | 3.28 µM |
| CCn1nc(C)cc1C(=O)/N=c1\[nH]c2cc(-c3ncn[nH]3)cc(OC)c2n1[C@H]1CC[C@H](n2/c(=N/C(=O)c3cc(C)nn3CC)[nH]c3cc(C(N)=O)cc(OCCCN4CCOCC4)c32)CC1 | > 50 µM |
| CCn1nc(C)cc1C(=O)/N=c1\[nH]c2cc(C(N)=O)cc(OC)c2n1C/C=C/Cn1/c(=N/C(=O)c2cc(C)nn2CC)[nH]c2cc(-c3ncn[nH]3)cc(OCCCN3CCOCC3)c21 | 0.33 µM |

---

subject-of-test: Stimulator of interferon genes protein (Mus musculus)
protocol-text: Activation of mouse STING expressed in RAW-Lucia ISG cells at 50 uM incubated for 24 hrs by quanti-blue SEAP reporter gene assay relative to control
Type: cell-based
condition-details: filed as activator
Lab note: cut-off is 1. Strictly less in fold change (FC) is label 1. Exactly 1 or more is label 0.

| compound-string | class-label |
| --- | --- |
| COc1cc(C(N)=O)cc2nc(C(=O)CCC(=O)O)n(C/C=C/Cn3c(C(=O)CCC(=O)O)nc4cc(C(N)=O)cc(OCCCN5CCOCC5)c43)c12 | label 0 |
| CCn1nc(C)cc1C(=O)/N=c1\[nH]c2cc(-c3ncn[nH]3)cc(OC)c2n1[C@H]1CC[C@@H](n2/c(=N/C(=O)c3cc(C)nn3CC)[nH]c3cc(C(N)=O)cc(OCCCN4CCOCC4)c32)CC1 | label 1 |
| CCn1nc(C)cc1C(=O)/N=c1\[nH]c2cc(C#N)cc(OC)c2n1C/C=C/Cn1/c(=N/C(=O)c2cc(C)nn2CC)[nH]c2cc(C#N)cc(OCCCN3CCOCC3)c21 | label 0 |
| CCn1nc(C)cc1C(=O)/N=c1\[nH]c2cc(-c3ncn[nH]3)cc(OC)c2n1C/C=C/Cn1/c(=N/C(=O)c2cc(C)nn2CC)[nH]c2cc(C(N)=O)c3ccoc3c21 | label 0 |
| CCn1nc(C)cc1C(=O)/N=c1\[nH]c2cc(-c3ncn[nH]3)cc(OC)c2n1C/C=C/Cn1/c(=N/C(=O)c2cc(C)nn2CC)[nH]c2cc(C(N)=O)c3c(c21)OCCO3 | label 0 |
| CCn1nc(C)cc1C(=O)/N=c1\[nH]c2cc(-c3ncn[nH]3)cc(OC)c2n1CCCCn1/c(=N/C(=O)c2cc(C)nn2CC)[nH]c2cc(C(N)=O)cc(OCCCN3CCOCC3)c21 | label 0 |
| CCn1nc(C)cc1C(=O)/N=c1\[nH]c2cc(C(N)=O)cc(OC)c2n1C/C=C/Cn1c(C(=O)CCC(=O)OC)nc2cc(C(N)=O)cc(OCCCN3CCOCC3)c21 | label 1 |
| CCn1nc(C)cc1C(=O)/N=c1\[nH]c2cc(C(N)=O)cc(OC)c2n1C/C=C/Cn1c(C(=O)CCC(=O)O)nc2cc(C(N)=O)cc(OCCCN3CCOCC3)c21 | label 1 |

---

subject-of-test: Stimulator of interferon genes protein (Homo sapiens)
protocol-text: Activation of human STING expressed in THP1-Dual cells incubated for 24 hrs by secreted luciferase reporter gene assay
property-name: EC50

| compound-string | observed-value |
| --- | --- |
| CCn1nc(C)cc1C(=O)/N=c1\[nH]c2cc(C#N)cc(OC)c2n1C/C=C/Cn1/c(=N/C(=O)c2cc(C)nn2CC)[nH]c2cc(C#N)cc(OCCCN3CCOCC3)c21 | > 50000 nM |
| CCn1nc(C)cc1C(=O)/N=c1\[nH]c2cc(-c3ncn[nH]3)cc(OC)c2n1C/C=C/Cn1/c(=N/C(=O)c2cc(C)nn2CC)[nH]c2cc(C#N)cc(OCCCN3CCOCC3)c21 | 26000 nM |
| CCn1nc(C)cc1C(=O)/N=c1\[nH]c2cc(-c3ncn[nH]3)cc(OC)c2n1C/C=C/Cn1/c(=N/C(=O)c2cc(C)nn2CC)[nH]c2cc(C(N)=O)cc(OCCCN3CCOCC3)c21 | 240 nM |
| CCn1nc(C)cc1C(=O)/N=c1\[nH]c2cc(-c3ncn[nH]3)cc(OC)c2n1C/C=C/Cn1/c(=N/C(=O)c2cc(C)nn2CC)[nH]c2cc(C(N)=O)cc(OCCCO)c21 | 2660 nM |

---

subject-of-test: Stimulator of interferon genes protein (Mus musculus) (UniProt Q3TBT3)
Sequence (Q3TBT3 whole entry): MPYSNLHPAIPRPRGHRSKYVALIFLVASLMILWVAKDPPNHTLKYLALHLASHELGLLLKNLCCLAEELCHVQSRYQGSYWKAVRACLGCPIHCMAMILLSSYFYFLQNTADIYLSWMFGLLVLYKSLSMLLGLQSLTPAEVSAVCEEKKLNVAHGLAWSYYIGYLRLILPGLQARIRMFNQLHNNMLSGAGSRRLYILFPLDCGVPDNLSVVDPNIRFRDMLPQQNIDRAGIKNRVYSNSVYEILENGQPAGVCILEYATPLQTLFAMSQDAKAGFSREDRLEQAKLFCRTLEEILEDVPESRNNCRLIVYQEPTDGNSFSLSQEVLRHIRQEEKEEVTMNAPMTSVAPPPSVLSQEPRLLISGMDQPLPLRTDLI
protocol-text: Activation of mouse STING expressed in RAW-Lucia ISG cells at 50 uM incubated for 24 hrs by QUANTI-Luc luciferase reporter gene assay relative to control
condition-details: filed as activator
# if value of fold change (FC) reaches 1, tag y; if it stays below, tag n

| compound-string | class-label |
| --- | --- |
| CCn1nc(C)cc1C(=O)/N=c1\[nH]c2cc(C(N)=O)cc(OC)c2n1C/C=C/Cn1/c(=N/C(=O)c2cc(C)nn2CC)[nH]c2cc(C#N)cc(OCCCN3CCOCC3)c21 | y |
| CCn1nc(C)cc1C(=O)/N=c1\[nH]c2cc(C(N)=O)cc(OC)c2n1C/C=C/Cn1/c(=N/C(=O)c2cc(C)nn2CC)[nH]c2cc(-c3ncc[nH]3)cc(OCCCN3CCOCC3)c21 | y |
| CCn1nc(C)cc1C(=O)/N=c1\[nH]c2cc(C(N)=O)cc(OC)c2n1C/C=C/Cn1/c(=N/C(=O)c2cc(C)nn2CC)[nH]c2cc(C(N)=O)cc(OCCCN3CCOCC3)c21.Cl.Cl.Cl | y |
| CCn1nc(C)cc1C(=O)/N=c1\[nH]c2cc(C(N)=O)cc(OC)c2n1C/C=C/Cn1/c(=N/C(=O)c2cc(C)nn2CC)[nH]c2cc(-c3ncn[nH]3)cc(OCCCN3CCOCC3)c21 | y |
| CCn1nc(C)cc1C(=O)/N=c1\[nH]c2cc(-c3nc(C)n[nH]3)cc(OC)c2n1C/C=C/Cn1/c(=N/C(=O)c2cc(C)nn2CC)[nH]c2cc(C(N)=O)cc(OCCCN3CCOCC3)c21 | n |
| CCn1nc(C)cc1C(=O)/N=c1\[nH]c2cc(-c3ncn[nH]3)cc(OC)c2n1C/C=C/Cn1/c(=N/C(=O)c2cc(C)nn2CC)[nH]c2cc(C#N)cc(OCCCN3CCOCC3)c21 | y |

---

subject-of-test: Stimulator of interferon genes protein (Homo sapiens, UniProt Q86WV6)
protocol-text: Binding affinity to 6His-tagged human STING measured after 3 hrs by HTRF assay

| compound-string | EC50 |
| --- | --- |
| CCn1nc(C)cc1C(=O)/N=c1\[nH]c2cc(-c3ncn[nH]3)cc(OC)c2n1C/C=C/Cn1/c(=N/C(=O)c2cc(C)nn2CC)[nH]c2cc(C(N)=O)cc(OCCCN3CCOCC3)c21 | 6.2 nM |

---

subject-of-test: UniProtKB Q86WV6
pIC50: −log10 of the molar value.
property-name: pIC50

| compound-string | observed-value |
| --- | --- |
| CCn1nc(C)cc1C(=O)/N=c1\[nH]c2cc(C(=O)O)ccc2n1C[C@@H](O)c1ccccc1 | 4.85 |

---

Each entry below carries its recorded EC50.
subject-of-test: Stimulator of interferon genes protein (Homo sapiens)
protocol-text: Activation of human STING expressed in THP1-Dual cells incubated for 24 hrs by secreted luciferase reporter gene assay
property-name: EC50 (µM)

| compound-string | property-name | unit-string | observed-value |
| --- | --- | --- | --- |
| COC(=O)CCC(=O)c1nc2cc(C(N)=O)cc(OC)c2n1C/C=C/Cn1c(C(=O)CCC(=O)OC)nc2cc(C(N)=O)cc(OCCCN3CCOCC3)c21 | EC50 | µM | 29.1 |
| CCn1nc(C)cc1C(=O)/N=c1\[nH]c2cc(C(N)=O)cc(OC)c2n1C/C=C/Cn1/c(=N/C(=O)c2cc(C)nn2CC)[nH]c2cc(C#N)cc(OCCCN3CCOCC3)c21 | EC50 | µM | 1.02 |
| CCn1nc(C)cc1C(=O)/N=c1\[nH]c2cc(C(N)=O)cc(OC)c2n1C/C=C/Cn1/c(=N/C(=O)c2cc(C)nn2CC)[nH]c2cc(-c3ncc[nH]3)cc(OCCCN3CCOCC3)c21 | EC50 | µM | 0.79 |
| CCn1nc(C)cc1C(=O)/N=c1\[nH]c2cc(-c3nc(C)n[nH]3)cc(OC)c2n1C/C=C/Cn1/c(=N/C(=O)c2cc(C)nn2CC)[nH]c2cc(C(N)=O)cc(OCCCN3CCOCC3)c21 | EC50 | µM | 2.55 |
| CCn1nc(C)cc1C(=O)/N=c1\[nH]c2cc(C3=NCCO3)cc(OC)c2n1C/C=C/Cn1/c(=N/C(=O)c2cc(C)nn2CC)[nH]c2cc(C(N)=O)cc(OCCCN3CCOCC3)c21 | EC50 | µM | 1.54 |
